B1: ALDH8A1 (parent)
chain: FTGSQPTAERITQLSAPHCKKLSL

variants of: B1; test: protein stability index of a GFP-peptide fusion (GPS, HEK-293T) (PSI 1-6); higher = more stable; conditions: c terminus: a fixed tail appended;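 also: lentivirally expressed fusions sorted by FACS into six bins by GFP to DsRed ratio, PSI derived from sequencing read proportions per bin multiplied by bin number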
We begin with a simple list: items and their reported protein stability index.
Answer with a number only.

Some variants with known protein stability index results, for comparison:
A8S = 1.9
A8N = 2.09
E9P = 2.05

Please examine the following record next.
Request: protein stability index for P17E ?
Result: 2.77
